Target: T1, human IL-8 (human, UniProt P10145 23-99, limits assumed)
T1 construct: also called hIL-8; hIL8
T1 sequence (P10145 23-99 limits assumed): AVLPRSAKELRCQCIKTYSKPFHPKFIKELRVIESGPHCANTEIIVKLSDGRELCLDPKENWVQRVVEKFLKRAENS
Procedure Details: SPR Biacore T200, Protein A/G capture, pH 5.8, 37C;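 also: antibodies captured by Protein A/G amine-coupled onto a CM4 sensor chip, with kinetic parameters derived using Biacore T200 Evaluation Software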
Below, each entry is listed with its recorded Kd.
Readout: Kd (nM)

Binder	Result
H1004/L0442 (antibody, human IgG1, kappa, name in Kabat numbering, V domains shown, L442 = L395 + S31E) VH: QVQLVESGGGLVQPGGSLRLSCAASGFTFSDYYLSWVRQAPGKGLEWVGLIRNKDNGYTPEYSASVKGRFTISRDDSKNSLYLTMSDLKTEDTAVYYCARENHRYDVELAYWGQGTLVTVSS VL: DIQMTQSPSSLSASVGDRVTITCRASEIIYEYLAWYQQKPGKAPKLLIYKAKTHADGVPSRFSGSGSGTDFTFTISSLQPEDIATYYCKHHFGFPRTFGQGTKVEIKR	77
H1000/L0442 (antibody, human IgG1, kappa, name in Kabat numbering, V domains shown, L442 = L395 + S31E) VH: QVQLVESGGGLVQPGGSLRLSCAASGFTFSEYYLSWVRQAPGKGLEWVGLIRNKDNHHTPEYSASVKGRFTISRDDSKNSLYLTMSDLKTEDTAVYYCARENHRYDVELAYWGQGTLVTVSS VL: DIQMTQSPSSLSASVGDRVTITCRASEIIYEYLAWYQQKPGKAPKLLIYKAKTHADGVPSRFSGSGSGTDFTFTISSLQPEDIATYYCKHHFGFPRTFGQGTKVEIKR	71
